Origin of the recorded values: patent US20240116985A1

Tested on: T1, full-length beta-Catenin (Uniprot ID P35222) (Homo sapiens (Human), UniProt P35222 2-781)
T1 construct: 'mature' is the nearest allowed form; also called bCat; B-Catenin
T1 sequence: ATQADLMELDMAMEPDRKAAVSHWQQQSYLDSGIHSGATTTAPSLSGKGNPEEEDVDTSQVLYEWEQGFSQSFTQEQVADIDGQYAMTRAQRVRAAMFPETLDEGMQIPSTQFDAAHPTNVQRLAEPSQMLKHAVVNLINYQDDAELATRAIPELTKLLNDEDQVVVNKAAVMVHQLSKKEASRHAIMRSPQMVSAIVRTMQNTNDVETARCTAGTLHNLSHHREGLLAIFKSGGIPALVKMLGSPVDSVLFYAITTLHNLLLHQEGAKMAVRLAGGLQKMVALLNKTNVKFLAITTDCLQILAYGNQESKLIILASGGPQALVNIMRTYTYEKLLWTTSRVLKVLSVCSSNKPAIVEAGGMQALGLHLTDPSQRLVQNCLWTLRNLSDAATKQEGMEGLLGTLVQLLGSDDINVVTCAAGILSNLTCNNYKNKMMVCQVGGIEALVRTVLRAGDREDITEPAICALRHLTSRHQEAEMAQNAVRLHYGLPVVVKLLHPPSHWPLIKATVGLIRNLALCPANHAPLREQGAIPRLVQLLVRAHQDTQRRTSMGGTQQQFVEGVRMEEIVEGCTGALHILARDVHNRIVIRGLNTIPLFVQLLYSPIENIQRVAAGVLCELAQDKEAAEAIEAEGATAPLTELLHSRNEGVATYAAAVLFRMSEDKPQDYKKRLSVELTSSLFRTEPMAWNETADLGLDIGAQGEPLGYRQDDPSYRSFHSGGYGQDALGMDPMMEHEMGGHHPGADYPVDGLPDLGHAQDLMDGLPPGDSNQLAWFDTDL
Assay text: fluorescence polarization competition, full-length beta-catenin with 5FAM-TCF4(10-53) probe as competitor
Starred links: 1 amine or outer side, 2 acyl side, 3 side chain; linkers in the order of their positions; H or OH if unused. Positions of bridges follow the written chain, without caps; N, C: chain ends. Non-standard residues stand in square brackets, D forms with d. Primed or numbered codes have the meaning given here. B5(16) = 2-amino-2-(pent-4-en-1-yl)hept-6-enoic acid = 2,2-bis(4-pentenyl)glycine (stitching residue), C=CCCCC(CCCC=C)(N[*:1])C(=O)[*:2]; B5(5) = 2,2-bis(4-pentenyl)glycine, 2-amino-2-(pent-4-en-1-yl)hept-6-enoic acid (stitching residue), C=CCCCC(CCCC=C)(N[*:1])C(=O)[*:2]; B5(9) = 2-amino-2-(pent-4-en-1-yl)hept-6-enoic acid (2,2-bis(4-pentenyl)glycine), C=CCCCC(CCCC=C)(N[*:1])C(=O)[*:2]; B5(19) = 2-amino-2-(pent-4-en-1-yl)hept-6-enoic acid (bis(4-pentenyl)glycine), C=CCCCC(CCCC=C)(N[*:1])C(=O)[*:2]; d(βAsp) = O=C(O)[C@@H](CC(=O)[*:2])N[*:1]; βAsp = O=C(O)[C@H](CC(=O)[*:2])N[*:1]; Bta = N[C@@H](Cc1csc2ccccc12)C(=O)O; αAllylPro = C=CC[C@@]1(C(=O)O)CCCN1; S8 = C=CCCCCCC[C@](C)(N)C(=O)O

Binder: Ac-[αAllylPro]DI[B5(9)][βAsp]EAAFQ[S8]F[Bta]Q-NH2 (staple 1-4, 4-11, Stapled peptide composition) [I-673]
EC50 / nM: 5000
//
Binder: Ac-[αAllylPro]DI[B5(16)]DESAFQ[S8]F[Bta]Q-NH2 (staple 1-4, 4-11, Stapled peptide composition; earlier-eluting HPLC peak (staple isomer)) [I-651]
EC50 / nM: 186
//
Binder: Ac-[αAllylPro]DI[B5(16)]DEFAFQ[S8]F[Bta]Q-NH2 (staple 1-4, 4-11, Stapled peptide composition; later-eluting HPLC peak (staple isomer)) [I-650]
EC50 / nM: 137
//
Binder: Ac-[αAllylPro]DI[B5(9)]DEAAFQ[S8]F[Bta]V-NH2 (staple 1-4, 4-11, Stapled peptide composition; later-eluting HPLC peak (staple isomer)) [I-646]
EC50 / nM: 461
//
Binder: Ac-[αAllylPro]DI[B5(16)]DEWAFQ[S8]F[Bta]Q-NH2 (staple 1-4, 4-11, Stapled peptide composition) [I-655]
EC50 / nM: 183
//
Binder: Ac-[αAllylPro]DI[B5(19)]DEAQFQ[S8]F[Bta]Q-NH2 (staple 1-4, 4-11, Stapled peptide composition) [I-663]
EC50 / nM: 43
//
Binder: XDIXDEALFQXFXQ (not fully specified; As printed: Ac-PL3-Asp-Ile-B5-Asp-Glu-Ala-Leu-Phe-Gln-S8-Phe-BztA-Gln-NH2; N-terminal Ac; PL3 at 1, B5 at 4, S8 at 11 (stapled 1-4 and 4-11); BztA at 13; C-terminal NH2, Stapled peptide composition; earlier-eluting HPLC peak (staple isomer)) [I-658]
EC50 / nM: 546
//
Binder: Ac-[αAllylPro]DI[B5(16)]DESAFQ[S8]F[Bta]Q-NH2 (staple 1-4, 4-11, Stapled peptide composition; later-eluting HPLC peak (staple isomer)) [I-652]
EC50 / nM: 72
//
Binder: Ac-[αAllylPro]DI[B5(9)]DEAWFQ[S8]F[Bta]Q-NH2 (staple 1-4, 4-11, Stapled peptide composition; later-eluting HPLC peak (staple isomer)) [I-665]
EC50 / nM: 923
//
Binder: XDIXDEASFQXFXQ (not fully specified; As printed: Ac-PL3-Asp-Ile-B5-Asp-Glu-Ala-Ser-Phe-Gln-S8-Phe-BztA-Gln-NH2; N-terminal Ac; PL3 at 1, B5 at 4, S8 at 11 (stapled 1-4 and 4-11); BztA at 13; C-terminal NH2, Stapled peptide composition; later-eluting HPLC peak (staple isomer)) [I-662]
EC50 / nM: 26
//
Binder: Ac-[αAllylPro]DI[B5(9)]DELAFQ[S8]F[Bta]Q-NH2 (staple 1-4, 4-11, Stapled peptide composition; earlier-eluting HPLC peak (staple isomer)) [I-647]
EC50 / nM: 445
//
Binder: Ac-[αAllylPro]DI[B5(9)]DEFAFQ[S8]F[Bta]Q-NH2 (staple 1-4, 4-11, Stapled peptide composition; earlier-eluting HPLC peak (staple isomer)) [I-649]
EC50 / nM: 209
//
Binder: XDIXDEASFQXFXQ (not fully specified; As printed: Ac-PL3-Asp-Ile-B5-Asp-Glu-Ala-Ser-Phe-Gln-S8-Phe-BztA-Gln-NH2; N-terminal Ac; PL3 at 1, B5 at 4, S8 at 11 (stapled 1-4 and 4-11); BztA at 13; C-terminal NH2, Stapled peptide composition; earlier-eluting HPLC peak (staple isomer)) [I-661]
EC50 / nM: 45
//
Binder: Ac-[αAllylPro]DI[B5(9)]DELAFQ[S8]F[Bta]Q-NH2 (staple 1-4, 4-11, Stapled peptide composition; later-eluting HPLC peak (staple isomer)) [I-648]
EC50 / nM: 233
//
Binder: Ac-[αAllylPro]DI[B5(9)]DEAAFQ[S8]F[Bta]V-NH2 (staple 1-4, 4-11, Stapled peptide composition) [I-645]
EC50 / nM: 395
//
Binder: XDIXDEALFQXFXQ (not fully specified; As printed: Ac-PL3-Asp-Ile-B5-Asp-Glu-Ala-Leu-Phe-Gln-S8-Phe-BztA-Gln-NH2; N-terminal Ac; PL3 at 1, B5 at 4, S8 at 11 (stapled 1-4 and 4-11); BztA at 13; C-terminal NH2, Stapled peptide composition; later-eluting HPLC peak (staple isomer)) [I-659]
EC50 / nM: 430
//
Binder: Ac-[αAllylPro][d(βAsp)]I[B5(9)]DEAAFQ[S8]F[Bta]Q-NH2 (staple 1-4, 4-11, Stapled peptide composition; earlier-eluting HPLC peak (staple isomer)) [I-668]
EC50 / nM: 675
//
Binder: Ac-[αAllylPro]DI[B5(5)][d(βAsp)]EAAFQ[S8]F[Bta]Q-NH2 (staple 1-4, 4-11, Stapled peptide composition) [I-674]
EC50 / nM: 5000
//
Binder: Ac-[αAllylPro]DI[B5(19)]DEAFFQ[S8]F[Bta]Q-NH2 (staple 1-4, 4-11, Stapled peptide composition) [I-660]
EC50 / nM: 544
//
Binder: Ac-[αAllylPro]DI[B5(9)]DEAWFQ[S8]F[Bta]Q-NH2 (staple 1-4, 4-11, Stapled peptide composition; earlier-eluting HPLC peak (staple isomer)) [I-664]
EC50 / nM: 996
//
Binder: Ac-[αAllylPro][d(βAsp)]I[B5(9)]DEAAFQ[S8]F[Bta]Q-NH2 (staple 1-4, 4-11, Stapled peptide composition; later-eluting HPLC peak (staple isomer)) [I-669]
EC50 / nM: 451
